assayed target: UniProt:Q4KLP0
Sequence (Q4KLP0 45-920 limits assumed): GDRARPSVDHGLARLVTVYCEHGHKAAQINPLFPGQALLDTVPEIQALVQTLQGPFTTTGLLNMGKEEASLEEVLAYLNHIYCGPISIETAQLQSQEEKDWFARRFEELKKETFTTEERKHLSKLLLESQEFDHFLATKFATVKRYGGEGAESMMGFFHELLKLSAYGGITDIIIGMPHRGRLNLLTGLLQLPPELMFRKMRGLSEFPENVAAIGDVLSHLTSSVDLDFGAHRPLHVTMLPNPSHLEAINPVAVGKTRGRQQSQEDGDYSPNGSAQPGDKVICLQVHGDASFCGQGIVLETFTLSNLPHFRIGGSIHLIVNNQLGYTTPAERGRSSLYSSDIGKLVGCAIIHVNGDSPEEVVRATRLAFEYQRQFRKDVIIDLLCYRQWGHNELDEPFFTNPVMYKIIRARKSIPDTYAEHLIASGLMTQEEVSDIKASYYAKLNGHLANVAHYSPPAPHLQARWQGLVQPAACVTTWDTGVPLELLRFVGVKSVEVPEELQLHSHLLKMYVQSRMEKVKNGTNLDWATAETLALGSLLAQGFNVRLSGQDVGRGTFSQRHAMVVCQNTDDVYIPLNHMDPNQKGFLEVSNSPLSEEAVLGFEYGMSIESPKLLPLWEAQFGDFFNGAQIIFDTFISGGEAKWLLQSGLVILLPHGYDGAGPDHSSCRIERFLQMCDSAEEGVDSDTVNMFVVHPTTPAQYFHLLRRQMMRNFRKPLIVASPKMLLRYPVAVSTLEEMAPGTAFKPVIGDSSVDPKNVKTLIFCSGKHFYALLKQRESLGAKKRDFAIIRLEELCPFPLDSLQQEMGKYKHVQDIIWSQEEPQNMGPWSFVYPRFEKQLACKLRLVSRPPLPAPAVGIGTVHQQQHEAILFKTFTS
protocol text: OADH reaction catalyzed by the enzyme preparation from rat liver, low [OA] (high-affinity OA sites)
Type: biochemical
condition parameters: OADH reaction, liver, low [OA]; Eadie-Hofstee; read-out: Ki, EH
Listed below: Ki values for each entry.
endpoint label: Ki (nM)

{"columns": ["compound", "assayed target", "assay value"],
 "data": [
  ["O=C(O)CCCC(=O)P(=O)(O)O [GP, glutaryl phosphonate]", "UniProt:Q4KLP0", 1900],
  ["O=C(O)CCCCC(=O)P(=O)(O)O [AP, adipoyl phosphonate]", "UniProt:Q4KLP0", 44],
  ["O=C(O)CCC(=O)P(=O)(O)O [SP, succinyl phosphonate]", "UniProt:Q4KLP0", 110000]
]}

---

assayed target: OGDH (Rattus norvegicus, UniProt Q5XI78)
Sequence (Q5XI78 41-1023): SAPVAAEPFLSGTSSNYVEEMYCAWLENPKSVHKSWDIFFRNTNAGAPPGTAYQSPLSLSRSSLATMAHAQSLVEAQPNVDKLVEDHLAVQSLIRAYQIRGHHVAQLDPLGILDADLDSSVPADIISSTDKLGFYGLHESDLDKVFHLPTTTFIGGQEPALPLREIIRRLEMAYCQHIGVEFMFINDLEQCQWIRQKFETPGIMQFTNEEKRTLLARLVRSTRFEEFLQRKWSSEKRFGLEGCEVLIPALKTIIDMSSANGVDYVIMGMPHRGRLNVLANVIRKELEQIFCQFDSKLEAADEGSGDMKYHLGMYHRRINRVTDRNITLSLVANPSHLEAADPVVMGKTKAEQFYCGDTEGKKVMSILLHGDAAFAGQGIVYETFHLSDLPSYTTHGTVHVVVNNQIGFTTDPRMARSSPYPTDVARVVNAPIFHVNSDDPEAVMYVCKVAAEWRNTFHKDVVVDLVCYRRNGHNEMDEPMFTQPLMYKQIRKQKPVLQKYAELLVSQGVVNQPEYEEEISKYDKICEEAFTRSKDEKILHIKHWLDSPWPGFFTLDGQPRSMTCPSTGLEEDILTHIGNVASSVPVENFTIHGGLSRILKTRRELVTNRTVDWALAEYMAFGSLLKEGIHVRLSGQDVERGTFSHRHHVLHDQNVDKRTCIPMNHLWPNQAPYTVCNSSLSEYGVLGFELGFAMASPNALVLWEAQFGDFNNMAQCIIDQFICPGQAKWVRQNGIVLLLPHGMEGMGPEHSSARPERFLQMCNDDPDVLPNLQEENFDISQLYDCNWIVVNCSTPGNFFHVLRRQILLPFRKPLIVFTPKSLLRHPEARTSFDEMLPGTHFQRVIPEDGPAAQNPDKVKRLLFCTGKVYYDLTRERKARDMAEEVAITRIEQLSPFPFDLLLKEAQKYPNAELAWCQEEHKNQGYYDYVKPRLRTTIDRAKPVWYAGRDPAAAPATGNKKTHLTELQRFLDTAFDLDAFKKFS
Sequence (Q01205 69-454 partner): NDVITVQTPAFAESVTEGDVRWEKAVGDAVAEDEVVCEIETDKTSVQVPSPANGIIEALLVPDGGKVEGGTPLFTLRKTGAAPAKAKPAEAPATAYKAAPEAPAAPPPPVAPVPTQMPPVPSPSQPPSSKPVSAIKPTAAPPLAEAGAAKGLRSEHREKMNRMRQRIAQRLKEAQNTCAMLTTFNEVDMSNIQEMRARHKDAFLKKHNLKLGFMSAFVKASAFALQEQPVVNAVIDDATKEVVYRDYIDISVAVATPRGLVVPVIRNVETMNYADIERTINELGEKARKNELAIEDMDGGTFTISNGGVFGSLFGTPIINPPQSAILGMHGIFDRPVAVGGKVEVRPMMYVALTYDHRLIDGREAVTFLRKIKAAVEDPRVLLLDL
Sequence (Q6P6R2 36-509 partner): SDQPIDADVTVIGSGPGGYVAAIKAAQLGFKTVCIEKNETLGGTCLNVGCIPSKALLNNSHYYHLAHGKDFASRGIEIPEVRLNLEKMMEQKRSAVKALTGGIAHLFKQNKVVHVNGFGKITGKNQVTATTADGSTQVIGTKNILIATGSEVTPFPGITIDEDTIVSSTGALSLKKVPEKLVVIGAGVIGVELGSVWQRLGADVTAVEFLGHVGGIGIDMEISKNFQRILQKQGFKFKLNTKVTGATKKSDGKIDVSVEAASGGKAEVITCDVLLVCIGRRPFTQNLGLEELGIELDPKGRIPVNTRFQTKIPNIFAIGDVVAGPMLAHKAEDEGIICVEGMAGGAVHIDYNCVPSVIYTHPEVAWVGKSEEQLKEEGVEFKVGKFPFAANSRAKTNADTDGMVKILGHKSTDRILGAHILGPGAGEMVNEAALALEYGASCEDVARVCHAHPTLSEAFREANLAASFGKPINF
protocol text: OGDH reaction (OG saturation) catalyzed by the enzyme preparation from rat liver
Type: biochemical
Design: the tissue fractions with the complexes enriched to a degree allowing for a robust detection of the enzymatic activities, have been used; from tissue
condition parameters: Michaelis-Menten approximation, read-out: Ki, MM

{"columns": ["compound", "readout units", "Ki"],
 "data": [
  ["O=C(O)CCCCC(=O)P(=O)(O)O [AP, adipoyl phosphonate]", "µM", 405],
  ["O=C(O)CCCC(=O)P(=O)(O)O [GP, glutaryl phosphonate]", "µM", 7.3]
]}

---

assayed target: OADH (Rattus norvegicus)
protocol text: OADH reaction catalyzed by the enzyme preparation from rat liver, low [OA] (high-affinity OA sites)
Format: biochemical
condition parameters: OADH reaction, liver, low [OA]; average; read-out: Ki, Average
pKi: −log10 of the molar value.
Listed below: pKi values for each entry.
endpoint label: pKi

{"columns": ["compound", "assay value"],
 "data": [
  ["O=C(O)CCCCC(=O)P(=O)(O)O [AP, adipoyl phosphonate]", 7.32],
  ["O=C(O)CCC(=O)P(=O)(O)O [SP, succinyl phosphonate]", 3.94],
  ["O=C(O)CCCC(=O)P(=O)(O)O [GP, glutaryl phosphonate]", 5.70]
]}

These measurements were taken from paper PMC7835950.
